# study-system: N461 alaRS (Escherichia coli, UniProt P00957)
# Sequence (P00957 2-462): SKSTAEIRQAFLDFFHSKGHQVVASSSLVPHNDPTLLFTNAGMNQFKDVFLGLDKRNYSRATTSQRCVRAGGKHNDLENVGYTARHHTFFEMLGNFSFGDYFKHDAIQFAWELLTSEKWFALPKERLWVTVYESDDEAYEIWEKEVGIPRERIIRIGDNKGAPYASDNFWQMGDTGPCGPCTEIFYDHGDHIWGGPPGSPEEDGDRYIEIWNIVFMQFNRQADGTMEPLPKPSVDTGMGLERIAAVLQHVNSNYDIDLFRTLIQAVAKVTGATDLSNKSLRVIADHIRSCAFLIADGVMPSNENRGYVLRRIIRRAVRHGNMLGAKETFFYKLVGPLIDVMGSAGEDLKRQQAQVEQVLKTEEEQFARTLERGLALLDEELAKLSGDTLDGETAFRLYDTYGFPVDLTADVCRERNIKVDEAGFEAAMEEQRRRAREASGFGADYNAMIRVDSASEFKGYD
quantity: Kd

Request: Specify measured Kd for O=S(=O)(O)c1cccc2cccc(Nc3ccccc3)c12 [ANS] .
Response: 1 to 5 µM
